phosphorylation enrichment overview
# Target of assay: EPHB2 (UniProt P29323)
# Sequence (P29323 whole entry, looked up): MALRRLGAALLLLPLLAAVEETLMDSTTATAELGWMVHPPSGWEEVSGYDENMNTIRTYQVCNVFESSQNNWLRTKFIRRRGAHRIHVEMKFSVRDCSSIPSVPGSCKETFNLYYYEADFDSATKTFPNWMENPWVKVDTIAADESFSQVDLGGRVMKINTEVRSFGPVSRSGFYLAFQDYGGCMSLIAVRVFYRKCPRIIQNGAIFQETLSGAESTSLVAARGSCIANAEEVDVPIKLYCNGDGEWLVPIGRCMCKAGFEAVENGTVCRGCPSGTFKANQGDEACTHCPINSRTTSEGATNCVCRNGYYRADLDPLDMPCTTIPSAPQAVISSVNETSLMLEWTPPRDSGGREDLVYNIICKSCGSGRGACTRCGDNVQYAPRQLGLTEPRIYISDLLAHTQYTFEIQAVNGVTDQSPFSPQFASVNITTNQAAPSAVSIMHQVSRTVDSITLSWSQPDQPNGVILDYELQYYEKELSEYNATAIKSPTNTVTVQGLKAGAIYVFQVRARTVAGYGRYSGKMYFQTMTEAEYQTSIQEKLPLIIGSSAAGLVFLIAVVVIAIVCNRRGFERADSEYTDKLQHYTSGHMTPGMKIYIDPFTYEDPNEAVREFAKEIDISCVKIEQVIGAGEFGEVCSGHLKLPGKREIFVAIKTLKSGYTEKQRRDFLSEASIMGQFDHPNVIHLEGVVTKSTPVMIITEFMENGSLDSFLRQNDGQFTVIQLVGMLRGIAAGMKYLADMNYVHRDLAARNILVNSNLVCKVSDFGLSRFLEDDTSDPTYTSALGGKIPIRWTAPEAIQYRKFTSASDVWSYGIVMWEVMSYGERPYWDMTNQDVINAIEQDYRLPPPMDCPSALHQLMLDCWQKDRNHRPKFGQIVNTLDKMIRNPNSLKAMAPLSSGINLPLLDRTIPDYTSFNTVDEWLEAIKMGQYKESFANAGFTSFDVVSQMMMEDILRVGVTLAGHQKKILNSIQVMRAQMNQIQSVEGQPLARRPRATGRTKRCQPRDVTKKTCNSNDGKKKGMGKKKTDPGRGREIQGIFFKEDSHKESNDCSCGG
# Measurement description: phosphorylation enrichment, bacterial display (enrichment ratio); higher = better substrate or ligand; peptides without Tyr show the background;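 further: 11-residue human phosphosite peptides and single-mutation variants displayed on the E. coli surface, counted by deep sequencing, each peptide's frequency after selection divided by its frequency in the unselected input library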;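 further: frequency after pTyr selection over input frequency; kinase dosed for 20-30% of maximal phosphorylation in three min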
Lab note: record the figure alone, no unit after it.

Record excerpt, results attached:
INSERT INTO assay_data (sequence_text, parameter, result_number) VALUES
  ('FRQNVYIPGSN [PCDHGA1_Y895_YF]', 'phosphorylation enrichment', 0.442),
  ('LTFHMYADPNI [SOS1_Y618_F623I_YF]', 'phosphorylation enrichment', 2.05),
  ('RISGVYKLPPD [ANGPTL7_Y145]', 'phosphorylation enrichment', 0.586),
  ('TVEDHDYEGGI [TKT_Y563_Y563D]', 'phosphorylation enrichment', 0.583),
  ('RPSRWYQFRVA [ANOS1_Y259]', 'phosphorylation enrichment', 0.717),
  ('HELFVYKSDEN [DOCK3_Y548_C550S_YF]', 'phosphorylation enrichment', 0.84),
  ('KQQEIYQELTQ [CD209_Y239]', 'phosphorylation enrichment', 3.03),
  ('IPKTWYSAEQF [CD207_Y217]', 'phosphorylation enrichment', 3.04),
  ('KFVVVYFRETD [IL17RB_Y447_I451T_YF]', 'phosphorylation enrichment', 0.597),
  ('KDYETYQSFQN [CTNND2_Y1157_P1159S]', 'phosphorylation enrichment', 8.93);

According to the records, this sequence CLMILYRLKER [PTPRR_Y249] displays phosphorylation enrichment of 0.603

Lab note: measured phosphorylation enrichment of DVSVVYSEVKT [FCRL4_Y493] was 0.592

Measured phosphorylation enrichment, CTTIHYNCMCN [TP53_Y234_Y236C] : 0.712

Item: AAVLNYKAGRD [GRIN2A_Y737] | phosphorylation enrichment: 0.33

Entry LMIEEYLTKEP [BAG3_Y457_L462P] ; phosphorylation enrichment = 0.975

Reported phosphorylation enrichment for IKNSGYISQYL [EIF2AK3_Y585_R588Q] was 0.375

Measured phosphorylation enrichment, KPGVNYYFRVS : 0.739

For reference, reported phosphorylation enrichment for QGFDTYFGYLL [ARSB_Y165_R160Q] stands at 10.3

The sequence listed as LLVVVYKFRCF [PSEN1_Y154_L153V_YF] has a reported phosphorylation enrichment of 0.45

Sample PPGRSYSPYDY [TNS1_Y793] ; phosphorylation enrichment observed: 1.07

---

# Target of assay: EPHB2 (UniProt P29323)
# Measurement description: phosphorylation enrichment, bacterial display (enrichment ratio); higher = better substrate or ligand; peptides without Tyr show the background
Quick list: phosphorylation enrichment per entry.
# output: bare number, no unit

Solved entries (count: 5):
INSERT INTO measurements (sequence_text, parameter, result_number) VALUES
  ('RALLNYIASKY [GSTA3_Y74_I71L]', 'phosphorylation enrichment', 0.521),
  ('DENWFYTRPAS [RPS19_Y54_A57P]', 'phosphorylation enrichment', 0.55),
  ('IRCQGYSHRIL [MYO3B_Y993_R990C]', 'phosphorylation enrichment', 0.558),
  ('RLLVVYPWTQR [HBB_Y36]', 'phosphorylation enrichment', 0.632),
  ('QHVPDYRQNVY [PCDHGA1_Y890]', 'phosphorylation enrichment', 0.563);

Lookup result for FGHTFYNQAIM [MCCC2_Y196_R193H] ; measured phosphorylation enrichment: 0.447

Looking up SQETFYRVSNM [ABCD1_Y181_Q178E_YF] , I see its phosphorylation enrichment listed as 0.528
